Origin of values: ChEMBL document CHEMBL4152244

- TARGET: Receptor tyrosine-protein kinase erbB-4 (Homo sapiens)
- Sequence (Q15303 whole entry, the tested form may be a part): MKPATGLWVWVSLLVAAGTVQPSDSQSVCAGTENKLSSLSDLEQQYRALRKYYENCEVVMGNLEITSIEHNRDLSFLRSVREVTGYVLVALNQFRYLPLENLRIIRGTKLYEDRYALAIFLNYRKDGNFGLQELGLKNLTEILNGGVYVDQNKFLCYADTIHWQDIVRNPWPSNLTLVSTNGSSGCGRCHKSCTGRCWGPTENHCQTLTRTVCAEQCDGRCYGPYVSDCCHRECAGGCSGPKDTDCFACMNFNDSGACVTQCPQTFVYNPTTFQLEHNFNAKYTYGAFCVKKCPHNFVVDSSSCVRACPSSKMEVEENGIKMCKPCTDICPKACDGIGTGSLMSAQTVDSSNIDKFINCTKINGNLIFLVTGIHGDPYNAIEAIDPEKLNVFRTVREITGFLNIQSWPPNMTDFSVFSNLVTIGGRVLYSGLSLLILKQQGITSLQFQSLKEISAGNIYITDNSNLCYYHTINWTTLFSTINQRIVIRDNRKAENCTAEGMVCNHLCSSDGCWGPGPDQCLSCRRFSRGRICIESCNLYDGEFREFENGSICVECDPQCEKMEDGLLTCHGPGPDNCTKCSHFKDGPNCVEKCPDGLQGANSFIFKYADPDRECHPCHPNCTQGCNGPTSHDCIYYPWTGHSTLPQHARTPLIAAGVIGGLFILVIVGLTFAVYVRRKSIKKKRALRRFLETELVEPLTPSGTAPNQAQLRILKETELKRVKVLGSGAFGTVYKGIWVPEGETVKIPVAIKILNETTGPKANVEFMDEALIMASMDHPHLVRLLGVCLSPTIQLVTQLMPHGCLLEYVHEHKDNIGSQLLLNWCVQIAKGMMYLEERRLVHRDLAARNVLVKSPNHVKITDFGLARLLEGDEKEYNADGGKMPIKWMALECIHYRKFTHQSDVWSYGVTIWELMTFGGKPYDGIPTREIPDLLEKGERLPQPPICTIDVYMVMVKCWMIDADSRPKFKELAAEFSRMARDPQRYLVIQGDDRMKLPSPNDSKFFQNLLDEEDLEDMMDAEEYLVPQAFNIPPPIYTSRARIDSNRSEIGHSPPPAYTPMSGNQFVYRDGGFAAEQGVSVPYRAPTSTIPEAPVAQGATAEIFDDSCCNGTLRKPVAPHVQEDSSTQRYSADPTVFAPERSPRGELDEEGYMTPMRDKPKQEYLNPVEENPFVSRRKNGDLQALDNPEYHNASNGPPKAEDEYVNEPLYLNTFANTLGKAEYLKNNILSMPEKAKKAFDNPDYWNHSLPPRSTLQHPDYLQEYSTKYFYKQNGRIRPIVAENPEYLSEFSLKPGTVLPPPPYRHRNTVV
- ASSAY_SUMMARY: Inhibition of recombinant human N-terminal GST-His6-fused erbB4 expressed in Sf9 insect cells at 10 uM using poly (Glu, Tyr) 4:1 as substrate after 60 mins in presence of [gamma-33P]-ATP by microplate scintillation counting method relative to control
MEASURE: inhibition (%)
The reply should be a number in %, with the unit left off.

[[record]]
compound_structure_string = "Cc1noc(C)c1-c1cc(C(F)(F)F)cc(S(=O)(=O)NCCc2cccc(F)c2)c1"
measure = "inhibition"
val = 9

[[record]]
compound_structure_string = "COc1ccc(F)cc1-c1cc(C(F)(F)F)cc(S(=O)(=O)NCCc2cccc(F)c2)c1"
measure = "inhibition"
val = 19.1


# lookup: inhibition of `COc1cc(-c2cc(C(F)(F)F)cc(S(=O)(=O)NCCc3cccc(F)c3)c2)ccc1F`
12.8

# lookup: inhibition of `O=S(=O)(NCCc1cccc(F)c1)c1cc(-c2ccc(F)nc2)cc(C(F)(F)F)c1`
7.5

# lookup: inhibition of `O=Cc1ccc(-c2cc(C(F)(F)F)cc(S(=O)(=O)NCCc3cccc(F)c3)c2)s1`
22.2
